# ASSAY_EXPLANATION: chemical genetic growth profiling, strain panel (AID 1159580);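 also: tested at 20 µM; growth read once vehicle control cultures reached saturation at 30 °C; lower values mean less growth of the strain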
# CONDITIONS: S. cerevisiae deletion strains, growth OD, locus YEL061C, strain CIN8
About 2,000 (36%) of roughly 5,500 compounds were called active. About 18% were inconclusive and are not listed. Rule as the data show it: active = normalized growth mostly below about 0.91 (no sharp cut-off); inconclusive = no clear call, values can overlap the other calls; inactive = mostly above about 0.92. Some of the results follow.
Outcomes: active, inactive

| MOLECULE | CLASS_ASSIGNMENT |
| --- | --- |
| CO[C@@]1(NC(=O)CSCC#N)C(=O)N2C(C(=O)O)=C(CSc3nnnn3C)CSC21 (some centres not stated) | inactive |
| COC(=O)c1sccc1-c1ccc(C(C)=O)o1 | inactive |
| CC(=O)CC(=O)Nc1ccccc1Cl | inactive |
| COc1c2ccoc2c(OC)c2oc(=O)ccc12 | inactive |
| O=C(Cn1ccnc1[N+](=O)[O-])NCCO | inactive |
| Cc1ccc(C)c(OCCCC(C)(C)C(=O)O)c1 | inactive |
| CSC(=NS(=O)(=O)c1ccccc1)SC | inactive |
| O=C1CC2OCC=C3CN4CC[C@]56c7ccccc7N1C5[C@H]2[C@H]3CC46 (some centres not stated) | inactive |
| COc1ccc(C(C)=O)cc1CSC(=NS(=O)(=O)c1ccccc1)Nc1cccc(F)c1 | inactive |
| COc1c(OC)c2occc2c2oc(=O)ccc12 | inactive |
| NC(CO)C(=O)NNCc1ccc(O)c(O)c1O (configuration not stated) | inactive |
| Cc1cccc2c1N(C(=S)Nc1ccccc1Cl)CCC2 | active |
